target-or-system: FXR (Homo sapiens (Human), UniProt Q96RI1)
Sequence (Q96RI1 262-486): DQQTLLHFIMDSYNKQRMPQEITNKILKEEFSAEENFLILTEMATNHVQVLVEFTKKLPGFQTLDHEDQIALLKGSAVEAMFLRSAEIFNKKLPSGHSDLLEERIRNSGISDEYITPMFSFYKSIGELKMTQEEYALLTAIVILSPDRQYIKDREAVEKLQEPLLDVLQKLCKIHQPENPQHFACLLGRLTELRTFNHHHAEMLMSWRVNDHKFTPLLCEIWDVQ
protocol-summary: FXR EC50 (FXR agonist activity reported with each example)
Assay type: cell-based
Measured log10 of EC50 values are reported for all entries that follow.
Note: values are log10 of EC50 expressed in nM.

O=C(O)c1cccc(-c2noc(C34CCC(/C=C/c5c(-c6c(Cl)cccc6Cl)noc5C5CC5)(CC3)CC4)n2)c1
1.15
O=C(O)c1ccc(OCC23CCC(OCc4c(-c5c(Cl)cncc5Cl)noc4C4CC4)(CC2)CC3)c(C(F)(F)F)c1
2.61
O=C(O)c1ccc(OCC23CCC(OCc4c(-c5c(Cl)cncc5Cl)noc4C4CC4)(CC2)CC3)c(F)c1
2.23

I have this compound here, O=C(O)c1ccc2nc(C34CCC(/C=C\c5c(-c6c(Cl)cccc6Cl)noc5C5CC5)(CC3)CC4)sc2c1 , and I need its recorded log10 of EC50.
2.89

I have this compound here, CC(C)(C#N)c1ccc(C23CCC(/C=C/c4c(-c5ccccc5C(F)(F)F)noc4C4CC4)(CC2)CO3)cc1 , and I need its recorded log10 of EC50.
2.84

I have this compound here, O=C(O)c1c(F)ccc2nc(C34CCC(OCc5c(-c6c(Cl)cncc6Cl)noc5C5CC5)(CC3)CC4)sc12 , and I need its recorded log10 of EC50.
1.63

I have this compound here, O=C(O)c1ccc(-c2noc(C34CCC(COCc5c(-c6c(Cl)cccc6Cl)noc5C5CC5)(CC3)CC4)n2)cc1 , and I need its recorded log10 of EC50.
2.15

I have this compound here, COc1cc(-c2noc(C34CCC(OCc5c(-c6c(Cl)cncc6Cl)noc5C5CC5)(CC3)CC4)n2)cnc1C(=O)O , and I need its recorded log10 of EC50.
3.18
